tested-on: MERTK (UniProt Q12866)
Sequence (Q12866 whole entry, looked up): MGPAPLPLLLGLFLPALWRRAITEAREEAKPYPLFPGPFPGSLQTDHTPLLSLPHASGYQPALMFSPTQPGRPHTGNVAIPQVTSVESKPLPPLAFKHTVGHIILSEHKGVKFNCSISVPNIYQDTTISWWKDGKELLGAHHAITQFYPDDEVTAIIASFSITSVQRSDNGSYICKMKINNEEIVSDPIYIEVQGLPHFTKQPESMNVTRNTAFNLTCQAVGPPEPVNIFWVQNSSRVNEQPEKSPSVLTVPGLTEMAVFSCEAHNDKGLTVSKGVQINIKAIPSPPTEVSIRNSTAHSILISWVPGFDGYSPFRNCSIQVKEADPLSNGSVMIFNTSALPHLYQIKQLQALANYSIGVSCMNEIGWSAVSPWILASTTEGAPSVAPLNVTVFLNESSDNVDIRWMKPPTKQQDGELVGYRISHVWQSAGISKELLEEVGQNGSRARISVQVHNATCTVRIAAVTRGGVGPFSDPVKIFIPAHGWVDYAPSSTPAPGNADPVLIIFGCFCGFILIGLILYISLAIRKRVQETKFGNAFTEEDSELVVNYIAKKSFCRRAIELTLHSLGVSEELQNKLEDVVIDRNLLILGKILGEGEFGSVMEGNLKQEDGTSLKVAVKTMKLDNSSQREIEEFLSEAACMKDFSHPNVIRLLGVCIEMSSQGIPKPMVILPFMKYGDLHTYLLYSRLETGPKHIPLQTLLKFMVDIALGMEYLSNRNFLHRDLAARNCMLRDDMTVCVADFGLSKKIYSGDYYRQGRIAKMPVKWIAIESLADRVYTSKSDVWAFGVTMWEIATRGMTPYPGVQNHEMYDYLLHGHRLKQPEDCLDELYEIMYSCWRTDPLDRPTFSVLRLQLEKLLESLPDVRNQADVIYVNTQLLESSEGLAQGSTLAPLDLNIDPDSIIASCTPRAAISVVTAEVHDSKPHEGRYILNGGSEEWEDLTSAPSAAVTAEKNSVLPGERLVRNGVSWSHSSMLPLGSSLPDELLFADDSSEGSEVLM
assay-details: phosphorylation enrichment, bacterial display (enrichment ratio); higher = better substrate or ligand; peptides without Tyr show the background;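 also: 11-residue human phosphosite peptides and single-mutation variants displayed on the E. coli surface, counted by deep sequencing, each peptide's frequency after selection divided by its frequency in the unselected input library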;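 also: frequency after pTyr selection over input frequency; kinase dosed for 20-30% of maximal phosphorylation in three min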
Label true for high-side phosphorylation enrichment (at or above 0.5) and false for low-side phosphorylation enrichment (below it).

Some entries whose results are on file:
CGLPRYRWLTH [TSPAN12_Y143_Y138C] ... false
YAGRDYSLDEF [MYOF_Y1705_G1701A] ... true
RNDQVYQPLRD [CD3D_Y149] ... true
FSTDCYRVGGH [NTRK2_Y707_Y706C_YF] ... true
PNATLYKMSSI [SERPINA7_Y40] ... false
ELTAKYLNFFQ [P3H4_Y181_YF] ... false
SSFSRYIMMPN [LEF1_Y114_G113R_YF] ... true
SHGKRYRVPSD [HHIPL2_Y395] ... false

Quick check: does MLNTNYHLPPS [MT-ATP8_Y33] have phosphorylation enrichment greater than or equal to 0.5?
true

Check the entry ADDSYYTARSA [ZAP70_Y493] : does phosphorylation enrichment equal or exceed 0.5?
true

Does the reported phosphorylation enrichment for WVFNHYRWIIW [BRCA2_Y2624_YF] fall at or above the 0.5 mark?
false

API: above_or_equal(metric=phosphorylation enrichment, cutoff=0.5) for item FDSPFYQDSLP [TSC1_Y508_R509Q]
false

hey, is phosphorylation enrichment for this one >= 0.5? SVTCTYFPALN [TP53_Y126_S127F]
true
